Biological target: Tubulin (Sus scrofa) (UniProt P02554+P02550)
Sequence (P02550 whole entry, looked up): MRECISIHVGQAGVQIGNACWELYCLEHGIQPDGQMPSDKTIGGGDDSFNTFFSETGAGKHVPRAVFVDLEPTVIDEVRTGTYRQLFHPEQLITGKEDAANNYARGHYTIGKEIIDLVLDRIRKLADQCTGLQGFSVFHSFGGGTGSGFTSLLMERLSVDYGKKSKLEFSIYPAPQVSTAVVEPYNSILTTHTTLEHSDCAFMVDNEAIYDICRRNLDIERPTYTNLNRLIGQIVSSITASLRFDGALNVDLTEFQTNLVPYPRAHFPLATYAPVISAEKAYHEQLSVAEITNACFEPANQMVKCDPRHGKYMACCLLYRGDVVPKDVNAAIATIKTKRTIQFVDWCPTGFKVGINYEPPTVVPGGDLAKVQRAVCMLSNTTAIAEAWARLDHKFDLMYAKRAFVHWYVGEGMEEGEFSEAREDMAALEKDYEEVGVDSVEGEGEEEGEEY
Sequence (P02554 whole entry, looked up): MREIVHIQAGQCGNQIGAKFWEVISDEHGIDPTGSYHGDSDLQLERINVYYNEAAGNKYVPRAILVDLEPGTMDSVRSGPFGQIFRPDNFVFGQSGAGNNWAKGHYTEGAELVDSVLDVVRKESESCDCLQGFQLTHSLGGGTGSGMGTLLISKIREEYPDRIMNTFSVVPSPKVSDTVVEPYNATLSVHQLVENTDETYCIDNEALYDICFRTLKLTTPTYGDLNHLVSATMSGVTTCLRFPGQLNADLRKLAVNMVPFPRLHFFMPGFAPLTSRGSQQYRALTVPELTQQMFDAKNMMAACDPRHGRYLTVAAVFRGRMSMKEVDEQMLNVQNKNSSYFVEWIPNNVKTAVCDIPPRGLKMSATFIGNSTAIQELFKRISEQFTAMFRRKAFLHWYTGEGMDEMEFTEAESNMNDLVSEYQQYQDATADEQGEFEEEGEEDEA
Test: Inhibition of pig tubulin polymerization at 5 uM incubated for 20 mins at 37 degC by fluorescence based tubulin polymerization inhibition assay
Format: protein assay
MEASURED QUANTITY: inhibition (%)

Completed entries (count: 5):
MOLECULE	inhibition / %
CC[C@H](C)[C@H](NC(=O)[C@H]1CCCCN1C)C(=O)N(C)[C@H]1CCO[C@@H](c2nc(C(=O)NC(C)C)cs2)C1	15.5
CC[C@@H](C)[C@H](NC(=O)[C@H]1CCCCN1C)C(=O)N(COC(=O)CC(C)C)[C@H](C[C@@H](OC(C)=O)c1nc(C(=O)N[C@@H](Cc2ccc(O)cc2)C[C@H](C)C(=O)O)cs1)C(C)C	72.6
CC[C@H](C)[C@H](NC(=O)[C@H]1CCCCN1C)C(=O)N[C@H]1CCO[C@H](c2nc(C(=O)NC(C)C)cs2)C1	8.73
CC[C@H](C)[C@H](N)C(=O)N[C@H]1CCO[C@@H](c2nc(C(=O)NC(C)C)cs2)C1	10.6
CC[C@H](C)[C@H](NC(=O)[C@H]1CCCCN1C)C(=O)N(C)[C@H]1CCO[C@@H](c2nc(C(=O)NCCOC)cs2)C1	10.6

(a) CC[C@H](C)[C@H](NC(=O)[C@H]1CCCCN1C)C(=O)N(C)[C@H]1CCO[C@@H](c2nc(C(=O)NCc3ccccc3)cs2)C1
(b) CC[C@H](C)[C@@H](C(=O)N[C@H]1CCO[C@@H](c2nc(C(=O)NC(C)C)cs2)C1)N(C)C
query: Param metric = inhibition; output whichever of a , b has the minimum value. // return label of chosen record
result: a
